# measurement.target: IGF2 (Homo sapiens, UniProt P01344)
# Sequence (P01344 25-91): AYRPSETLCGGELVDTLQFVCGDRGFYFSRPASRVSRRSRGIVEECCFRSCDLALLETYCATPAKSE
# assay.notes: SPR (Biacore T200) of recombinant IGF2R domain 11 mutants on immobilised biotinylated IGF2
# Assay type: binding
# Design: purchased GroPep
# condition.parameters: Table 2
value.kind: Kinetics kon

molecule="WT: wild-type human IGF2R domain 11 (residues 1511-1650), AB loop YSEKGL (protein) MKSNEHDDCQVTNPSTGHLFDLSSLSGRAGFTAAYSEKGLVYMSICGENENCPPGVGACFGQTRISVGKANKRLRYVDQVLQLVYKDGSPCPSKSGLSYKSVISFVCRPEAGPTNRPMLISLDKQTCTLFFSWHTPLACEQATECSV" measured_value="5e+06 M⁻¹ s⁻¹"
molecule="WT + 23D (HI-HFQS): wild-type domain 11 with HI loop 1630-1633 HFQS (clone 23D) (protein) MKSNEHDDCQVTNPSTGHLFDLSSLSGRAGFTAAYSEKGLVYMSICGENENCPPGVGACFGQTRISVGKANKRLRYVDQVLQLVYKDGSPCPSKSGLSYKSVISFVCRPEAGPTNRPMLISLHFQSCTLFFSWHTPLACEQATECSV" measured_value="250000 M⁻¹ s⁻¹"
